- Test system: UO-31
- testMethodNotes: NCI tumour cell line growth inhibition, 48 h
Calls of active or inactive are those of the source. No stated cut-off is given here; in the data, active = GI50 up to about 1.1 µM and inactive = higher.
measuredMetric: GI50

| compound | value |
| --- | --- |
| COc1ccc(NC=O)c(C(=O)CCNC(C)=O)c1 | > 100 µM (inactive) |
| COC1OC(COS(=O)(=O)c2ccc(C)cc2)C(O)C(OS(=O)(=O)c2ccc(C)cc2)C1OS(=O)(=O)c1ccc(C)cc1 (stereo not drawn) | > 100 µM (inactive) |
| C#C[C@]1(O)CCC2C3CCc4cc(Oc5nc(F)nc(-c6c7cc8ccccc8cc7c7n6CCS7)n5)ccc4C3CCC21C (stereo partly drawn) | > 100 µM (inactive) |
